experiment.description: Pharmacokinetics of paeoniflorin in pseudo-germ-free (PGF) rats
Assay type: in vivo
experimental.context: SD, rat, in vivo, po, 20 mg/kg, PGF rats (antibiotic pretreated), oral paeoniflorin 20 mg/kg, plasma analyte = labelled substance; read-out: Cmax
assay.metric: Cmax (ng/mL)
Numeric answer only, unit ng/mL assumed.

Please fill in: Cmax reported for O=C(O)c1ccccc1 [Benzoic acid, benzoic acid] = 27.6

----------
experiment.description: Pharmacokinetics of paeoniflorin in normal SD rats (plasma, LC-MS/MS)
Assay type: in vivo, rat
experimental.context: SD, rat, plasma; normal rats, oral 20 mg/kg, n = 6; read-out: MRT (0-t)
assay.metric: MRT last (h)
State just the number; it will be interpreted in h.

Sample C[C@@]12C[C@@]3(O)O[C@@H](O1)[C@]1(COC(=O)c4ccccc4)[C@H]3C[C@@]12O[C@@H]1O[C@H](CO)[C@@H](O)[C@H](O)[C@H]1O [Paeoniflorin] ; MRT last observed: 2

----------
experiment.description: Pharmacokinetics of paeoniflorin in normal SD rats (plasma, LC-MS/MS)
Format: in vivo, rat
experimental.context: SD, rat, plasma, po, 20 mg/kg, normal rats, oral paeoniflorin 20 mg/kg, plasma analyte = labelled substance, Figures 2C, 3B, 3C; read-out: AUC(0-t) (unit inferred)
assay.metric: AUC(0-t) (ng·h/mL)
Could you give me the number in ng·h/mL? Just the number is fine.

Query C[C@@]12C[C@@]3(O)O[C@@H](O1)[C@]1(COC(=O)c4ccccc4)[C@H]3C[C@@]12O[C@@H]1O[C@H](CO)[C@@H](O)[C@H](O)[C@H]1O yields AUC(0-t) of 245

----------
experiment.description: Pharmacokinetics of paeoniflorin in normal SD rats (plasma, LC-MS/MS)
Format: in vivo, rat
experimental.context: SD, rat, in vivo; normal rats, oral paeoniflorin 20 mg/kg, plasma analyte = labelled substance, n = 6
assay.metric: Tmax (min)
Form entry: value (min) — number only.

Field Tmax (entry O=C(O)c1ccccc1 ) reads 47.5

----------
experiment.description: Pharmacokinetics of paeoniflorin in pseudo-germ-free (PGF) rats
Type: in vivo
experimental.context: SD, rat, plasma, po, 20 mg/kg, PGF rats (antibiotic pretreated), oral paeoniflorin 20 mg/kg, plasma analyte = labelled substance; read-out: AUC (0-t)
assay.metric: AUC(0-t) (ng·h/mL)
State the answer as a number, implicitly in ng·h/mL.

Recorded result, C[C@@]12C[C@@]3(O)O[C@@H](O1)[C@]1(COC(=O)c4ccccc4)[C@H]3C[C@@]12O[C@@H]1O[C@H](CO)[C@@H](O)[C@H](O)[C@H]1O , AUC(0-t): 296

----------
experiment.description: Pharmacokinetics of paeoniflorin in normal SD rats (plasma, LC-MS/MS)
Type: in vivo, rat
experimental.context: SD, rat, plasma, iv, 2 mg/kg, intravenous 2 mg/kg, normal rats, n = 5; read-out: AUC (0-t)
assay.metric: AUC(0-t)
Show the value, then the unit it is measured in.

AUC(0-t) recorded for this compound, C[C@@]12C[C@@]3(O)O[C@@H](O1)[C@]1(COC(=O)c4ccccc4)[C@H]3C[C@@]12O[C@@H]1O[C@H](CO)[C@@H](O)[C@H](O)[C@H]1O , is 1060 ng·h/mL

----------
experiment.description: Pharmacokinetics of paeoniflorin in normal SD rats (plasma, LC-MS/MS)
Assay type: in vivo, rat
experimental.context: SD, rat, plasma; intravenous 2 mg/kg, normal rats, n = 5; read-out: MRT (0-t)
assay.metric: MRT last (min)
Lab book: enter the figure in min, no units written.

Entry C[C@@]12C[C@@]3(O)O[C@@H](O1)[C@]1(COC(=O)c4ccccc4)[C@H]3C[C@@]12O[C@@H]1O[C@H](CO)[C@@H](O)[C@H](O)[C@H]1O ; MRT last = 54.2

----------
experiment.description: Pharmacokinetics of paeoniflorin in normal SD rats (plasma, LC-MS/MS)
Format: in vivo, rat
experimental.context: SD, rat, plasma; intravenous 2 mg/kg, normal rats, n = 5; read-out: Vz
assay.metric: Vd
Answers without a unit are incomplete; give the number and then its unit.

// C[C@@]12C[C@@]3(O)O[C@@H](O1)[C@]1(COC(=O)c4ccccc4)[C@H]3C[C@@]12O[C@@H]1O[C@H](CO)[C@@H](O)[C@H](O)[C@H]1O [Paeoniflorin] : Vd value = 6.09 L/kg

----------
experiment.description: Pharmacokinetics of paeoniflorin in pseudo-germ-free (PGF) rats
Assay type: in vivo
experimental.context: SD, rat; PGF rats (antibiotic pretreated), oral paeoniflorin 20 mg/kg, plasma analyte = labelled substance
assay.metric: AUC(0-inf) (ng·h/mL)
The answer is to be given in ng·h/mL; state only the numeric part.

The value of AUC(0-inf) measured for the compound C[C@@]12C[C@@]3(O)O[C@@H](O1)[C@]1(COC(=O)c4ccccc4)[C@H]3C[C@@]12O[C@@H]1O[C@H](CO)[C@@H](O)[C@H](O)[C@H]1O turned out to be 312

----------
experiment.description: Pharmacokinetics of paeoniflorin in pseudo-germ-free (PGF) rats
Type: in vivo
experimental.context: SD, rat; PGF rats (antibiotic pretreated), oral paeoniflorin 20 mg/kg, plasma analyte = labelled substance
assay.metric: Tmax (min)
State just the number; it will be interpreted in min.

Memo: C[C@@]12C[C@@]3(O)O[C@@H](O1)[C@]1(COC(=O)c4ccccc4)[C@H]3C[C@@]12O[C@@H]1O[C@H](CO)[C@@H](O)[C@H](O)[C@H]1O , reported Tmax: 23.3

----------
experiment.description: Pharmacokinetics of paeoniflorin in normal SD rats (plasma, LC-MS/MS)
Type: in vivo, rat
experimental.context: SD, rat, in vivo, po, 20 mg/kg, normal rats, oral paeoniflorin 20 mg/kg, plasma analyte = labelled substance, Figures 2C, 3B, 3C; read-out: AUC(0-t) (unit inferred)
assay.metric: AUC(0-t) (ng·h/mL)
Your answer is read as ng·h/mL, so omit the unit and give the number.

What the record says about O=C(O)c1ccccc1 [Benzoic acid, benzoic acid] : AUC(0-t) is 151

----------
experiment.description: Pharmacokinetics of paeoniflorin in normal SD rats (plasma, LC-MS/MS)
Assay type: in vivo, rat
experimental.context: SD, rat, in vivo, po, 20 mg/kg, normal rats, oral paeoniflorin 20 mg/kg, plasma analyte = labelled substance, Figures 2C, 3B, 3C; read-out: Cmax (unit inferred)
assay.metric: Cmax
Kindly write the number and append the unit.

O=C(O)c1ccccc1 yielded Cmax of 55.6 ng/mL

----------
experiment.description: Pharmacokinetics of paeoniflorin in pseudo-germ-free (PGF) rats
Type: in vivo
experimental.context: SD, rat, plasma, po, 20 mg/kg, PGF rats (antibiotic pretreated), oral paeoniflorin 20 mg/kg, plasma analyte = labelled substance; read-out: Cmax
assay.metric: Cmax (ng/mL)
Please state the figure in ng/mL; there is no need to write the unit.

Input C[C@@]12C[C@@]3(O)O[C@@H](O1)[C@]1(COC(=O)c4ccccc4)[C@H]3C[C@@]12O[C@@H]1O[C@H](CO)[C@@H](O)[C@H](O)[C@H]1O [Paeoniflorin] . Output Cmax: 134

----------
experiment.description: Pharmacokinetics of paeoniflorin in normal SD rats (plasma, LC-MS/MS)
Type: in vivo, rat
experimental.context: SD, rat, plasma, oral, rats, oral 20 mg/kg vs intravenous 2 mg/kg, F = AUCT·Div/AUCiv·DT × 100%; read-out: absolute (oral) bioavailability
assay.metric: bioavailability (%)
Report the figure in % without appending any unit label.

Entry C[C@@]12C[C@@]3(O)O[C@@H](O1)[C@]1(COC(=O)c4ccccc4)[C@H]3C[C@@]12O[C@@H]1O[C@H](CO)[C@@H](O)[C@H](O)[C@H]1O [Paeoniflorin] — recorded bioavailability = 2.32

----------
experiment.description: Pharmacokinetics of paeoniflorin in normal SD rats (plasma, LC-MS/MS)
Format: in vivo, rat
experimental.context: SD, rat, plasma; intravenous 2 mg/kg, normal rats, n = 5; read-out: t1/2z (converted)
assay.metric: half-life (h)
// units = h; emit number, no label

For reference, reported half-life for C[C@@]12C[C@@]3(O)O[C@@H](O1)[C@]1(COC(=O)c4ccccc4)[C@H]3C[C@@]12O[C@@H]1O[C@H](CO)[C@@H](O)[C@H](O)[C@H]1O [Paeoniflorin] stands at 2.06

----------
experiment.description: Pharmacokinetics of paeoniflorin in normal SD rats (plasma, LC-MS/MS)
Format: in vivo, rat
experimental.context: SD, rat, in vivo, po, 20 mg/kg, normal rats, oral paeoniflorin 20 mg/kg, plasma analyte = labelled substance; read-out: Cmax
assay.metric: Cmax (ng/mL)
Your answer should be a plain number; it is taken to be in ng/mL.

Item: O=C(O)c1ccccc1 | Cmax: 55.6

----------
experiment.description: Pharmacokinetics of paeoniflorin in normal SD rats (plasma, LC-MS/MS)
Type: in vivo, rat
experimental.context: SD, rat; normal rats, oral paeoniflorin 20 mg/kg, plasma analyte = labelled substance, n = 6
assay.metric: AUC(0-inf)

The molecule identified as C[C@@]12C[C@@]3(O)O[C@@H](O1)[C@]1(COC(=O)c4ccccc4)[C@H]3C[C@@]12O[C@@H]1O[C@H](CO)[C@@H](O)[C@H](O)[C@H]1O registered its AUC(0-inf) at 246 ng·h/mL
